assay: Test Example 7: Test for toxicity to fishes (fry carp); type: in vivo, fry carp (Cyprinus carpio); conditions: water, read-out: Toxicity to fishes TLm48
endpoint: LC50 at 48 h (ng/mL)
Respond with the bare value in ng/mL.

// LC50 at 48 h lookup, key: CC1(C)C(C(=O)OC(C#N)c2cccc(Oc3ccccc3)c2)C1C(Br)C(Cl)(Cl)Br (centres unmarked) [(A), reference compound]
3.95

Others:
Suppose we examine the molecule CC1(C)C(C(=O)OC(C#N)c2cccc(Oc3ccc(F)cc3)c2)C1C(Br)C(Cl)(Cl)Br (centres unmarked) [(B), reference compound] ; what LC50 at 48 h value has been reported?
2.8
